These entries and their values trace back to paper PMC10427684.

# TARGET_UNDER_TEST: Carbonic anhydrase II (CAII), BioVision kit #K473-100 (Homo sapiens)
READOUT_NAME: pIC50
Formally, pIC50 is defined as -log10 of the concentration c, with c in mol/L.

Input: Param readout= pIC50; system= Carbonic anhydrase II (CAII), BioVision kit #K473-100 (Homo sapiens); entry= CC(=O)N1C[C@@H](c2ccc(-c3ccc(S(N)(=O)=O)cc3)cc2)C2(C1)CN(C(=O)C(C)Oc1cccc(C#N)c1)C2 (some centres unmarked) [compound 54] ; returns value.
Output: 7.47
